# Test system: E. coli
# Format: cell-based
# ASSAY_SETUP: 18 h
# Method: A two-fold broth microdilution method described in our previous paper was used to determine the antimicrobial activities of parental and hybrid peptides. […] The plate was slowly shaken in the microbial incubator, and measured at A595 after incubation at 37 °C for 18 h. The minimal concentrations at which no microbial growth occurred were recorded as MIC (minimal inhibitory concentration) values. […]
Where a SMILES comes first, the peptide text is derived from it.
ASSAY_ENDPOINT: MIC E. coli (µg/mL)
// note: answer is a bare numeric in µg/mL

IN: Note MIC E. coli for the compound shown: CC(C)C[C@H](NC(=O)[C@H](CCCNC(=N)N)NC(=O)[C@H](CCCCN)NC(=O)[C@H](Cc1ccccc1)NC(=O)[C@H](Cc1ccccc1)NC(=O)[C@@H](N)CCCCN)C(=O)N[C@@H](CC(C)C)C(=O)N[C@@H](CCCCN)C(=O)N[C@@H](CO)C(=O)N[C@H](C(=O)N[C@@H](CCCNC(=N)N)C(=O)N[C@@H](CCCNC(=N)N)C(=O)N[C@@H](C)C(=O)N[C@H](C(=O)N[C@@H](CCCCN)C(=O)N[C@@H](CCCCN)C(=O)N[C@@H](Cc1ccccc1)C(=O)N[C@@H](CCCNC(=N)N)C(N)=O)C(C)C)C(C)C [Hc2] (H-KFFKRLLKSVRRAVKKFR-NH2)
OUT: 9.38
